system: Cx43_HCC1937 cells; assay: 48 h olaparib dose-response curve, cell viability; format: cell-based; details: Homo sapiens
pIC50: −log10 of the molar value.
quantityMeasured: pIC50

                            smilesstructure  observedresult
0  O=C(c1cc(Cc2n[nH]c(=O)c3ccccc23)ccc1F)N1CCN(C(=O)C2CC2)CC1            3.46
